Molecular target: BTK (Homo sapiens (Human), UniProt Q06187)
Sequence (Q06187 whole entry, species assumed): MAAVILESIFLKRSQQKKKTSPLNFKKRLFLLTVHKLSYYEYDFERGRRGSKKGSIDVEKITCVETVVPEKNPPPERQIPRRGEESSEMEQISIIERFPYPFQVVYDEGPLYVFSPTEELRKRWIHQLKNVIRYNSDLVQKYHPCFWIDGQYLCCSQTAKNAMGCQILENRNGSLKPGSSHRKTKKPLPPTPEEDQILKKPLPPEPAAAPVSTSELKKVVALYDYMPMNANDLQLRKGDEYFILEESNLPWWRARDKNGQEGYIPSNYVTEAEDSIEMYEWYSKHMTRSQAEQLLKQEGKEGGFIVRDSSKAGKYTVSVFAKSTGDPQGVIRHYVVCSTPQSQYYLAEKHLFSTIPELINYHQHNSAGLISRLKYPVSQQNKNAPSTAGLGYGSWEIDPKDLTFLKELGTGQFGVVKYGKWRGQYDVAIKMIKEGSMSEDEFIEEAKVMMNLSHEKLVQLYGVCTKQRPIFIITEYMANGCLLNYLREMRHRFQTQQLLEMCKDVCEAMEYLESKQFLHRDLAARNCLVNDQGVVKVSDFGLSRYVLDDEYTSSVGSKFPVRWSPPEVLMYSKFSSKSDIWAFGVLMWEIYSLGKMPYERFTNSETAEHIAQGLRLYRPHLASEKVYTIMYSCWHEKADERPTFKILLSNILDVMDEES
Test: Btk kinase assay (HTRF)
Format: biochemical
Details: [ATP]=80 μM, BTK=3.4 nM; read-out: BTK Inhibition
Please go through the items and note down their IC50.

Example entries begin here.
C=CC(=O)Nc1cccc(-n2c(=O)n(-c3ccc(Oc4ccc(F)c(F)c4)cc3)c3cnccc32)c1; 100 to 1000 nM
C=CC(=O)Nc1cccc(-n2c(=O)n(-c3ccc(OCc4ccccc4)cc3)c3cnccc32)c1; 100 to 1000 nM
C=CC(=O)N1CC[C@@H](n2c(=O)n(-c3ccc(Oc4cc(Cl)cc(OC)c4)cc3)c3cnccc32)C1; 10 to 100 nM
C=CC(=O)N1CC[C@@H](n2c(=O)n(-c3ccc(OCc4cccc(C(F)(F)F)c4)cc3)c3cnccc32)C1; 100 to 1000 nM
C=CC(=O)N1CC[C@@H](n2c(=O)n(-c3ccc(OCc4ccc(Cl)cc4F)cc3)c3cnccc32)C1; 100 to 1000 nM

Please go through the list and note IC50 for each compound.
1. C=CC(=O)N1CC[C@@H](n2c(=O)n(-c3ccc(Oc4cccc(Cl)c4C)cc3)c3cnccc32)C1
2. C=CC(=O)N1CC[C@@H](n2c(=O)n(-c3ccc(Oc4cccc(Cl)c4OC)cc3)c3cnccc32)C1

Result string:
1: 10 to 100 nM; 2: 10 to 100 nM
